The reported measurements were obtained from paper PMC6137088.

// reported Antimicrobial activity: MIC per item
Tested on: E. coli ATCC25922 ΔwaaC
Type: cell-based, Escherichia coli
Details: Table 6, triplicates
Where no end group is shown, it is not given here.
measured.quantity: Antimicrobial activity: MIC

{"item.sequence": "GLRKRLRKFRNKPKEKLKKIGQKIQGLLPKLAPRTDY [I13P]", "reported.measurement": "32 µg/mL"}
{"item.sequence": "GLRKRLRKFRNKRKEKLKKIGQKIQGLLPKLAPRTDY [I13R]", "reported.measurement": "32 µg/mL"}
{"item.sequence": "GLRKRLRKFRNKMKEKLKKIGQKIQGLLPKLAPRTDY [I13M]", "reported.measurement": "4 µg/mL"}
{"item.sequence": "GLRKRLRKFRNKIKEKLKKIGQKGQGLLPKLAPRTDY [I24G]", "reported.measurement": "8 µg/mL"}
{"item.sequence": "GLRKRLRKFRNKIKEKLKKIGQKNQGLLPKLAPRTDY [I24N]", "reported.measurement": "8 µg/mL"}
{"item.sequence": "GLRKRLRKFRNKIKEKKKKIGQKIQGLLPKLAPRTDY [L17K]", "reported.measurement": "8 µg/mL"}
{"item.sequence": "GLRKRLRKFRNKIKEKDKKIGQKIQGLLPKLAPRTDY [L17D]", "reported.measurement": "≥64 µg/mL"}
{"item.sequence": "GLRKRLRKFRNKIKEKLKKEGQKIQGLLPKLAPRTDY [I20E]", "reported.measurement": "4 µg/mL"}
{"item.sequence": "GLRKRLRKFRNKDKEKLKKIGQKIQGLLPKLAPRTDY [I13D]", "reported.measurement": "≥64 µg/mL"}
{"item.sequence": "GLRKRLRKFRNKIKEKLKKIGQKIQTLLPKLAPRTDY [G26T]", "reported.measurement": "4 µg/mL"}
{"item.sequence": "GLRKRLRKFRNKIKEDLKKIGQKIQGLLPKLAPRTDY [K16D]", "reported.measurement": "2 µg/mL"}
